target_or_system: human serotonin 5-HT6 receptor (Homo sapiens, UniProt P50406)
Construct: made in house; host or cells: Sf21 insect cells (pBacPAK8 baculovirus vector)
Sequence (P50406 whole entry): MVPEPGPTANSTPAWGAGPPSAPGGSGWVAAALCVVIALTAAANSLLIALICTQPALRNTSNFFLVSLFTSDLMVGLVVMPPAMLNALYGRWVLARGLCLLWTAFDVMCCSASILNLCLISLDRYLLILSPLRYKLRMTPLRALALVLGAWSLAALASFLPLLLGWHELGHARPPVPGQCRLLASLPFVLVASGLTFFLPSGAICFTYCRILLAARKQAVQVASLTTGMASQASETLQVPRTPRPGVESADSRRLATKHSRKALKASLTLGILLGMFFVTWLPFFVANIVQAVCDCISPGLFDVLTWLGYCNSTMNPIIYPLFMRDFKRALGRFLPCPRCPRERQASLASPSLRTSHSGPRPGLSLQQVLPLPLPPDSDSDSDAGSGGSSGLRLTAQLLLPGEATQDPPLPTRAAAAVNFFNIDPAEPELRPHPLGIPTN
measurement_notes: [3H]LSD binding at cloned 5-HT6 receptors
experimental_parameters: read-out: Binding affinity (Inhibition rate % at 10 μM) 5HT6
property: inhibition at 10 µM
In your response, put the unit directly after the numeric value.

Worked examples, 8 compounds total:
• CN(C)c1cc(Cl)c2c(c1)NC(=O)C(C)(c1ccccc1)C2=O (stereo not drawn) [Example 11] = 70.7%
• CC1(c2ccccc2)C(=O)Nc2c(Br)cc(Br)cc2C1=O (stereo not drawn) [Example 10] = 73.4%
• COc1cc(Cl)cc2c1C(=O)C(C)(c1ccccc1)C(=O)N2 (stereo not drawn) [Example 6] = 68.3%
• CC1(c2ccccc2)C(=O)Nc2cc(Cl)cc(Cl)c2C1=O (stereo not drawn) [Example 1] = 91.1%
• CC1(c2cccc(OCc3ccccc3)c2)C(=O)Nc2cc(Cl)cc(Cl)c2C1=O (stereo not drawn) [Example 19] = 74.9%
• C[C@H](NC(=O)Oc1cccc(C2(C)C(=O)Nc3cc(Cl)cc(Cl)c3C2=O)c1)c1ccccc1 (stereo partly drawn) [Example 26] = 70%
• CC1(c2ccccc2)C(=O)Nc2cc(Br)cc(Br)c2C1=O (stereo not drawn) [Example 4] = 70.9%
• COc1ccc(C2(C)C(=O)Nc3ccccc3C2=O)cc1 (stereo not drawn) [Example 33] = 72.4%

Lookup: inhibition at 10 µM / human serotonin 5-HT6 receptor (Homo sapiens, UniProt P50406) / COc1cc2c(c(OC)c1)C(=O)C(C)(c1ccccc1)C(=O)N2 (stereo not drawn) [Example 8]
74%

Lookup: inhibition at 10 µM / human serotonin 5-HT6 receptor (Homo sapiens, UniProt P50406) / CC1(c2ccc(O)cc2)C(=O)Nc2ccccc2C1=O (stereo not drawn) [Example 34]
70.8%

Lookup: inhibition at 10 µM / human serotonin 5-HT6 receptor (Homo sapiens, UniProt P50406) / CC1(c2ccc(N)cc2)C(=O)Nc2cc(Cl)ccc2C1=O (stereo not drawn) [Example 38]
74.1%

Lookup: inhibition at 10 µM / human serotonin 5-HT6 receptor (Homo sapiens, UniProt P50406) / COc1cc(Br)c2c(c1)NC(=O)C(C)(c1ccccc1)C2=O (stereo not drawn) [Example 7]
71.1%

Lookup: inhibition at 10 µM / human serotonin 5-HT6 receptor (Homo sapiens, UniProt P50406) / COc1ccc(C2(C)C(=O)Nc3c(Br)cc(Br)cc3C2=O)cc1[N+](=O)[O-] (stereo not drawn) [Example 28]
73.2%

Lookup: inhibition at 10 µM / human serotonin 5-HT6 receptor (Homo sapiens, UniProt P50406) / CC1(c2ccc(OCc3ccccc3)c(Br)c2)C(=O)Nc2cc(Cl)cc(Cl)c2C1=O (stereo not drawn) [Example 23]
70.6%

Lookup: inhibition at 10 µM / human serotonin 5-HT6 receptor (Homo sapiens, UniProt P50406) / CN1CCN(c2cc(Cl)c3c(c2)NC(=O)C(C)(c2ccc(N)cc2)C3=O)CC1 (stereo not drawn) [Example 48]
71.6%

Lookup: inhibition at 10 µM / human serotonin 5-HT6 receptor (Homo sapiens, UniProt P50406) / COc1cc(Cl)c2c(c1)NC(=O)C(C)(c1ccccc1)C2=O (stereo not drawn) [Example 5]
73.5%

Lookup: inhibition at 10 µM / human serotonin 5-HT6 receptor (Homo sapiens, UniProt P50406) / COc1ccc(C2(C)C(=O)Nc3cc(Cl)cc(Cl)c3C2=O)cc1[N+](=O)[O-] (stereo not drawn) [Example 21]
73.7%

Lookup: inhibition at 10 µM / human serotonin 5-HT6 receptor (Homo sapiens, UniProt P50406) / CCNc1ccc(C2(C)C(=O)Nc3cc(Cl)cc(Cl)c3C2=O)cc1 (stereo not drawn) [Example 41]
67.7%

Lookup: inhibition at 10 µM / human serotonin 5-HT6 receptor (Homo sapiens, UniProt P50406) / CC1(c2ccccc2)C(=O)Nc2cc(Cl)ccc2C1=O (stereo not drawn) [Example 3]
69%

Lookup: inhibition at 10 µM / human serotonin 5-HT6 receptor (Homo sapiens, UniProt P50406) / CC1(c2cccc(O)c2)C(=O)Nc2cc(Cl)cc(Cl)c2C1=O (stereo not drawn) [Example 20]
91.7%

Lookup: inhibition at 10 µM / human serotonin 5-HT6 receptor (Homo sapiens, UniProt P50406) / CC1(c2ccccc2)C(=O)Nc2cc(Cl)c(Cl)cc2C1=O (stereo not drawn) [Example 9]
71.2%
